Every entry's value here was drawn from patent US12371430B2.

Catalogue of IC50 readings, one per entry.
molecular target: ATR/ATRIP (Homo sapiens (Human), UniProt Q13535); experiment: ATR/ATRIP kinase assay (TR-FRET, p53 Ser15 phosphorylation); conditions: 0.5 μM ATP, 50 nM p53
Sequence (Q13535 whole entry): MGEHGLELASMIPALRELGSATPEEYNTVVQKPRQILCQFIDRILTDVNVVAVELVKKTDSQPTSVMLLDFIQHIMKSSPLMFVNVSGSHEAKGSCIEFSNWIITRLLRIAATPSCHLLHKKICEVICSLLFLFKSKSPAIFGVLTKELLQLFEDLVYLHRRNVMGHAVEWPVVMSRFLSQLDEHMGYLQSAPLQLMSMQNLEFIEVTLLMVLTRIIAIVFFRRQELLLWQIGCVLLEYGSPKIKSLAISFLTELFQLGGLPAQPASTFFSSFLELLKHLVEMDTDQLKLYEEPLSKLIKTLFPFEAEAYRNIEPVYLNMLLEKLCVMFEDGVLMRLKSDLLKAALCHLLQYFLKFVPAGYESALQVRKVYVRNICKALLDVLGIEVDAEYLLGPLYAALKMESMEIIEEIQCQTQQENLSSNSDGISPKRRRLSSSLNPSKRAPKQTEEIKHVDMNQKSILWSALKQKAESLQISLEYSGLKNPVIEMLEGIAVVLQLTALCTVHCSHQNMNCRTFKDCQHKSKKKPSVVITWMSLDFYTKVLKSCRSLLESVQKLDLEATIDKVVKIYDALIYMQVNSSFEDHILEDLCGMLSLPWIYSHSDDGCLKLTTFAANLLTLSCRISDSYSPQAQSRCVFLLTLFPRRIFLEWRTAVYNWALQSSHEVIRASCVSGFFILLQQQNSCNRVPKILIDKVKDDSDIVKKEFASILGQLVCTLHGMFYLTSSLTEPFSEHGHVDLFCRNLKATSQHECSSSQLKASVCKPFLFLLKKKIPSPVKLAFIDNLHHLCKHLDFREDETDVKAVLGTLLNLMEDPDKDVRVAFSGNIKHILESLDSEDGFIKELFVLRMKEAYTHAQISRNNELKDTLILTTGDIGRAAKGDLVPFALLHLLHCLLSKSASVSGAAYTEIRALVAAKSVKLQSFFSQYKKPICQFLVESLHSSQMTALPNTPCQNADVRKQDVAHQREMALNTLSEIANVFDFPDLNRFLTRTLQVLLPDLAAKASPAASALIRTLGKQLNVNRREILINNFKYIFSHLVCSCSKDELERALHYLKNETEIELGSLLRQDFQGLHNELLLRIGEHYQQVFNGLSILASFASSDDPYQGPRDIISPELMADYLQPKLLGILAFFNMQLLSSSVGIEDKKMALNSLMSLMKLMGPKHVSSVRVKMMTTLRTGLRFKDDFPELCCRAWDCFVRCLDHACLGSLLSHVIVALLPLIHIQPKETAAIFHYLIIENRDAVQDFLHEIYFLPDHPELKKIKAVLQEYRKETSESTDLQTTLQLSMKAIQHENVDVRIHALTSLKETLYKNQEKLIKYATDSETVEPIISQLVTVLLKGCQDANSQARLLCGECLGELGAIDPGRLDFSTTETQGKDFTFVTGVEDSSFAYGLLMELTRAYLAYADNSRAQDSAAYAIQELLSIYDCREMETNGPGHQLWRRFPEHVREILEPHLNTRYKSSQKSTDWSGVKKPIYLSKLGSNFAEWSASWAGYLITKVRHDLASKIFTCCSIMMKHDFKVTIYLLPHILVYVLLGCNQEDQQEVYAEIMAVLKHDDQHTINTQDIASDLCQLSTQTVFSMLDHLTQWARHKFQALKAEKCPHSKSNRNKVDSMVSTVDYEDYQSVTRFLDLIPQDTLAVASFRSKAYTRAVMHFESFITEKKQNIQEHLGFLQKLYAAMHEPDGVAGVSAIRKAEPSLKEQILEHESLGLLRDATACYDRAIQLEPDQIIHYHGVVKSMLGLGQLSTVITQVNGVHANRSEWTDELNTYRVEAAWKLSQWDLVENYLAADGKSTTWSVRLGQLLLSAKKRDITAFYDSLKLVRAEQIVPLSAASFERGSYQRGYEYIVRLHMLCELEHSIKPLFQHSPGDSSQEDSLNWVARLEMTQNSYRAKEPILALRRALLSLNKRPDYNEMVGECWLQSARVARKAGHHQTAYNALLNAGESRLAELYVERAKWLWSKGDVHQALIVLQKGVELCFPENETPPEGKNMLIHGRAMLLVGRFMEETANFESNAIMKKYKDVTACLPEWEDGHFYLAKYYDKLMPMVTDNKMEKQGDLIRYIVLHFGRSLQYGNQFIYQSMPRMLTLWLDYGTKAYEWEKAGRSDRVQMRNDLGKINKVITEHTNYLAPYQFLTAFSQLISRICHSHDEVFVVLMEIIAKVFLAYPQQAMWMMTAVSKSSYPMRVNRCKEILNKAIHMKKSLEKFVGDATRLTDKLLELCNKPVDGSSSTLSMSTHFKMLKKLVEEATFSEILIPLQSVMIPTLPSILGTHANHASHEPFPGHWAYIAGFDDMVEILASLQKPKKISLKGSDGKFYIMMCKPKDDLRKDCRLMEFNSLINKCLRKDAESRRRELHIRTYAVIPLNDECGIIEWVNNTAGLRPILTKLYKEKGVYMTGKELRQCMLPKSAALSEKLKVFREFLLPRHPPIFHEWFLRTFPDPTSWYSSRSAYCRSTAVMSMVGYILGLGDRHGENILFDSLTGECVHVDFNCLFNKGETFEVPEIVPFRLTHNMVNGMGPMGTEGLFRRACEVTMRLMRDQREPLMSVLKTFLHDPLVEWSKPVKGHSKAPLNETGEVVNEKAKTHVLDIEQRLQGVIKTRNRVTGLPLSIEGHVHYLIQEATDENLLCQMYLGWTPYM
Sequence (Q8WXE1 whole entry partner): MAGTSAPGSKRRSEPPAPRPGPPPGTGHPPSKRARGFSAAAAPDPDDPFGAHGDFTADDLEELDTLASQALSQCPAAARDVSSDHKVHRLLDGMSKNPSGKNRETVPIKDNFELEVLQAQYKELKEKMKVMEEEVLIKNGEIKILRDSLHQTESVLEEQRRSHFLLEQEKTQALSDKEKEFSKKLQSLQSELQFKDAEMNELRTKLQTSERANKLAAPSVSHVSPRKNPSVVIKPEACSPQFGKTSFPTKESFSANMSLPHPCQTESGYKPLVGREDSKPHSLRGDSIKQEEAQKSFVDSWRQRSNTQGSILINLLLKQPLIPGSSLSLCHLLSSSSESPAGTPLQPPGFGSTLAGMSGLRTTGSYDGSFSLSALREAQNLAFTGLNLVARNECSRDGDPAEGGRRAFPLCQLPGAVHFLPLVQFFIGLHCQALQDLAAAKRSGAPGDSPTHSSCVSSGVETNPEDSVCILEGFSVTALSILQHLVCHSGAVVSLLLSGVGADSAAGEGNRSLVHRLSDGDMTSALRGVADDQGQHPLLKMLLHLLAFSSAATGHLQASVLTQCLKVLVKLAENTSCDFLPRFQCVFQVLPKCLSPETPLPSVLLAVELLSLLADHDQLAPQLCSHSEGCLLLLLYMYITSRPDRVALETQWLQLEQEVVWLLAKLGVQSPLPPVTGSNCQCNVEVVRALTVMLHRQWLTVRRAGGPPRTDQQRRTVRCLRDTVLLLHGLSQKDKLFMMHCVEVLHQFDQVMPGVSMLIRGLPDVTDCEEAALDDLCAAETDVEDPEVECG

| compound | study-system | IC50, nM |
| --- | --- | --- |
| C[C@@H]1COCCN1c1ccc2c(n1)c(-c1cc[nH]n1)nn2-c1cccc(C#N)c1 [Compound 53] | ATR/ATRIP (Homo sapiens (Human), UniProt Q13535) | 58 |
| C[C@@H]1COCCN1c1ccc2c(n1)c(-c1cc[nH]n1)nn2CC(C)(C)O [Compound 85] | ATR/ATRIP (Homo sapiens (Human), UniProt Q13535) | 21 |
| C[C@@H]1COCCN1c1cc(C(C)(C)O)c2c(n1)c(-c1cc[nH]n1)nn2C [Compound 25] | ATR/ATRIP (Homo sapiens (Human), UniProt Q13535) | 4.3 |
| Cc1cnccc1-c1cc(N2CCOC[C@H]2C)nc2c(-c3cc[nH]n3)nn(C)c12 [Compound 23] | ATR/ATRIP (Homo sapiens (Human), UniProt Q13535) | 1 |
| C[C@@H]1COCCN1c1cc(C2=CCS(=O)(=O)CC2)c2c(n1)c(-c1ccn[nH]1)nn2C [Compound 81] | ATR/ATRIP (Homo sapiens (Human), UniProt Q13535) | 3 |
| C[C@@H]1COCCN1c1cc(C2=CCOCC2)c2c(n1)c(-c1cc[nH]n1)nn2C [Compound 54] | ATR/ATRIP (Homo sapiens (Human), UniProt Q13535) | 2.2 |
| Cc1cc(S(C)(=O)=O)ccc1-c1cc(N2CCOC[C@H]2C)nc2c(-c3cc[nH]n3)nn(C)c12 [Compound 50] | ATR/ATRIP (Homo sapiens (Human), UniProt Q13535) | 1.3 |
| CC(C)n1cc(-c2cc(N3CCOC[C@H]3C)nc3c(-c4cc[nH]n4)nn(C)c23)cn1 [Compound 18] | ATR/ATRIP (Homo sapiens (Human), UniProt Q13535) | 6.2 |
| Cc1ncncc1-c1cc(N2CCOC[C@H]2C)nc2c(-c3cc[nH]n3)nn(C)c12 [Compound 87] | ATR/ATRIP (Homo sapiens (Human), UniProt Q13535) | 0.4 |
| Cc1nc([S@+](C)[O-])ccc1-c1cc(N2CCOC[C@H]2C)nc2c(-c3cc[nH]n3)nn(C)c12 [Compound 9] | ATR/ATRIP (Homo sapiens (Human), UniProt Q13535) | 4.1 |
| C[C@@H]1COCCN1c1cc(C2CCCOC2)c2c(n1)c(-c1ccn[nH]1)nn2C (some centres unmarked) [Compound 67] | ATR/ATRIP (Homo sapiens (Human), UniProt Q13535) | 0.8 |
